Target: purified recombinant human PARP (Homo sapiens)
Construct: purchased Trevigan (Gaithersburg, Md.)
Sequence (P09874 whole entry): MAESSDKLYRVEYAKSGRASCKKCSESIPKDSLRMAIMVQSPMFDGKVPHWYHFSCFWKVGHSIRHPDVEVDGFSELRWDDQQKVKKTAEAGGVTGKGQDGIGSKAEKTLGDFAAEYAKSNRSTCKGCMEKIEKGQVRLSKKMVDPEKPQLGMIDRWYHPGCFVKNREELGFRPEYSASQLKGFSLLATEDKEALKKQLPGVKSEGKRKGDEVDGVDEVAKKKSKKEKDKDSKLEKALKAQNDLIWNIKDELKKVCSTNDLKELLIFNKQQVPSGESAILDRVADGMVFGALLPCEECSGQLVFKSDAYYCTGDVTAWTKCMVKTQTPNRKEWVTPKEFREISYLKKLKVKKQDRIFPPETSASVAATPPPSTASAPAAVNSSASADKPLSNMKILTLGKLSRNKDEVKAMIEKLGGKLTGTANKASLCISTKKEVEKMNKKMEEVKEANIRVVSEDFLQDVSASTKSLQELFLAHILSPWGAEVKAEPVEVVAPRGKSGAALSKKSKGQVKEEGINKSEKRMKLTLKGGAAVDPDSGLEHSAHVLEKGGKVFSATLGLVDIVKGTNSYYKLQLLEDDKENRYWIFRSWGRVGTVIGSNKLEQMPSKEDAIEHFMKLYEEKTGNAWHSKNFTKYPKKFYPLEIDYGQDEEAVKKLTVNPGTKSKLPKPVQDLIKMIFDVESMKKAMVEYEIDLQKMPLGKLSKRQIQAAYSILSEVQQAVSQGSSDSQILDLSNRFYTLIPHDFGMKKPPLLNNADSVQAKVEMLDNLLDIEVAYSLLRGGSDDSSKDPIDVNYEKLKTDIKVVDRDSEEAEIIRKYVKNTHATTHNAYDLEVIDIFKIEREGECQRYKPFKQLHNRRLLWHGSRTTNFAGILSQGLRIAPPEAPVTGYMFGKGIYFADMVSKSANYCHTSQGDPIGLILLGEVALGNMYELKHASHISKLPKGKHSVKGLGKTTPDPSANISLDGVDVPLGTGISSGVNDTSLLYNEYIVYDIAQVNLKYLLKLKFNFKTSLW
Assay: PARP enzyme assay (IC50)
Assay type: biochemical
Conditions: approximate IC50 values, [3H]NAD, read-out: IC50
pIC50: −log10 of the molar value.
Tick fulfilled if pIC50 is 7 or greater. Tick not fulfilled if pIC50 is less than 7.

// known answers, use as guide
>  <compound>
COC(=O)C1CN(C(=O)c2cccc(-c3nc4cccc5c4n3CCNC5=O)c2)CCC1=O (stereo not drawn)

>  <target.desc>
purified recombinant human PARP (Homo sapiens)

>  <class.assignment>
not fulfilled

$$$$
>  <compound>
CCCCN(CCCC)Cc1nc2cccc3c2n1CCNC3=O

>  <target.desc>
purified recombinant human PARP (Homo sapiens)

>  <class.assignment>
not fulfilled

$$$$
>  <compound>
CN(C)CCCN(C)Cc1nc2cccc3c2n1CCNC3=O

>  <target.desc>
purified recombinant human PARP (Homo sapiens)

>  <class.assignment>
not fulfilled

$$$$
>  <compound>
CN(C)CC(=O)Nc1cnc2c(c1)[nH]c(=O)c1ccccc12

>  <target.desc>
purified recombinant human PARP (Homo sapiens)

>  <class.assignment>
not fulfilled

$$$$
>  <compound>
Cn1cc2c3c(cccc31)C(=O)NCC2=O

>  <target.desc>
purified recombinant human PARP (Homo sapiens)

>  <class.assignment>
fulfilled

$$$$
>  <compound>
CCN(CC)CC1=NNC(=O)c2cccc3[nH]cc1c23

>  <target.desc>
purified recombinant human PARP (Homo sapiens)

>  <class.assignment>
fulfilled

$$$$

Request: Dear colleague, could you confirm whether O=C1NCCn2c(-c3ccc([N+](=O)[O-])o3)nc3cccc1c32 has pIC50 at or above 7?
Response: fulfilled

Request: Dear colleague, could you confirm whether O=c1[nH]c2ccc(N3CCN(CC4CCCO4)CC3)nc2c2ccccc12 (stereo not drawn) has pIC50 at or above 7?
Response: not fulfilled

Request: Dear colleague, could you confirm whether CCCCCN(CCCCC)Cc1nc2cccc3c2n1CCNC3=O has pIC50 at or above 7?
Response: not fulfilled
